The origin of these recorded values is the supplement of paper PMC11061612.

Hi there, I'd appreciate the recorded combination Emax for every entry that follows.
test system: LU-99A (Non-Small Cell Lung Carcinoma); experiment: combination Emax (second highest fraction inhibited in the dose matrix, 72 h); higher = more inhibition; extreme values may be limits of the assay

Worked examples follow.
compound	assaySystem	combination Emax
Cc1c2c(nn1C)CSCc1cc(n(C)n1)CSc1cc(c3ccccc3c1)OCCCc1c(C(=O)O)n(C)c3c-2c(Cl)ccc13 [AZD5991] + Cn1cnc2c(F)c(Nc3ccc(Br)cc3Cl)c(C(=O)NOCCO)cc21 [Selumetinib] (first compound max 1 µM, 7x7, partner max 3 µM)	LU-99A (Non-Small Cell Lung Carcinoma)	0.379
Cc1cc2ncnn2cc1Nc1ncc2c(n1)n(C1CCOCC1)c(=O)n2C [AZD7648] + CCN(CCO)CCCOc1ccc2c(Nc3cc(CC(=O)Nc4cccc(F)c4)[nH]n3)ncnc2c1 [AZD2811] (first compound max 10 µM, 7x7, partner max 1 µM)	LU-99A (Non-Small Cell Lung Carcinoma)	0.53

Okay, next one:
Sample CN(CCO)CC[C@H](CSc1ccccc1)Nc1ccc(S(=O)(=O)NC(=O)c2ccc(N3CCC([C@@H](O)c4ccccc4-c4ccc(Cl)cc4)CC3)cc2)cc1S(=O)(=O)C(F)(F)F [AZD4320] + C=CCn1c(=O)c2cnc(Nc3ccc(N4CCN(C)CC4)cc3)nc2n1-c1cccc(C(C)(C)O)n1 [AZD1775] (first compound max 1 µM, partner max 1 µM) ; combination Emax observed: 0.762
